The reader will find reported Inhibitory effects of cyclooxygenase (COX): COX-2 (30 nM) values listed item by item below.
- system: cyclooxygenase-2 (Mus musculus, UniProt Q05769)
- Construct: After seeding 2×10^6 cells of Raw 264.7 cell (obtained from Korean cell line bank, Deposit No. 40071) into each of 12-well plates; endogenous in cells; host or cells: Raw 264.7 (Korean cell line bank, Deposit No. 40071), aspirin-pretreated, induced with interferon and LPS
- Sequence (Q05769 18-604): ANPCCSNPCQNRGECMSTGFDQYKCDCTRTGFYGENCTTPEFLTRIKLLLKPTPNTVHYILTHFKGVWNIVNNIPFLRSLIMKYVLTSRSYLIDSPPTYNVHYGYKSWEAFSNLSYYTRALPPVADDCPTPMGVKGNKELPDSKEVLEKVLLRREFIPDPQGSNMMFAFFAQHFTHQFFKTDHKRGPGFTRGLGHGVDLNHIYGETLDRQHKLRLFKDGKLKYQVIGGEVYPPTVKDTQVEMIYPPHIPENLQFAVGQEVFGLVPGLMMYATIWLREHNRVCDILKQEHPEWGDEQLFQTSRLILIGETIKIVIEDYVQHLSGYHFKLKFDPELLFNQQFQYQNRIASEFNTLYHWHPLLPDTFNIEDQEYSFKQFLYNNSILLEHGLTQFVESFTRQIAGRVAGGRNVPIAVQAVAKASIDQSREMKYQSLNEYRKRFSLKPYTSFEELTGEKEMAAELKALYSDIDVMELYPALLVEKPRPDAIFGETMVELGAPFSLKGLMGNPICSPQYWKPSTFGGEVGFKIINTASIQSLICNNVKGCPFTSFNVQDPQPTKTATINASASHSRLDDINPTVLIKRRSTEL
- assay_protocol: Inhibitive effects against cyclooxygenase-2 using Raw 264.7 (interferon/LPS-induced PGE2, EIA)
- Format: cell-based
- test_settings: Raw 264.7 cells, interferon + LPS, 18 hours
Show the value, then the unit it is measured in.

Previously resolved entries follow.
-- ask Could you tell me which Inhibitory effects of cyclooxygenase (COX): COX-2 (30 nM) is on file for COc1ccc(-c2nsc(C)c2-c2ccc(S(C)(=O)=O)cc2)cc1 [Example 8] ?
-- reply 76.4 % inhibition

-- ask Entry to check: Cc1snc(-c2ccc(S(C)(=O)=O)cc2)c1-c1ccc(F)cc1 [Example 1]
-- reply 63.7 % inhibition

-- ask Entry to check: Cc1snc(-c2ccc(F)cc2)c1-c1ccc(S(N)(=O)=O)cc1 [Example 5]
-- reply 72.3 % inhibition

-- ask Entry to check: Cc1snc(-c2ccccc2)c1-c1ccc(S(N)(=O)=O)cc1 [Example 2]
-- reply 60.2 % inhibition

-- ask Entry to check: Cc1snc(-c2ccccc2)c1-c1ccc(S(C)(=O)=O)cc1 [Example 6]
-- reply 69.0 % inhibition

-- ask Entry to check: Cc1snc(-c2ccc(Br)cc2)c1-c1ccc(S(C)(=O)=O)cc1 [Example 7]
-- reply 65.6 % inhibition

-- ask Entry to check: Cc1snc(-c2ccc(Br)cc2)c1-c1ccc(S(N)(=O)=O)cc1 [Example 3]
-- reply 58.5 % inhibition

-- ask Entry to check: Cc1snc(-c2ccc(F)cc2)c1-c1ccc(S(C)(=O)=O)cc1 [Example 9]
-- reply 65.1 % inhibition

Continuing:
-- ask Could you tell me which Inhibitory effects of cyclooxygenase (COX): COX-2 (30 nM) is on file for COc1ccc(-c2nsc(C)c2-c2ccc(S(N)(=O)=O)cc2)cc1 [Example 4] ?
-- reply 67.7 % inhibition

---

- system: cyclooxygenase-1 (Homo sapiens)
- Construct: A cultured U-937 (humane lymphoma cell with Deposit No. 21593, obtained from Korean cell line bank) was centrifuged to collect the pellet; endogenous in cells; host or cells: U-937 (Korean cell line bank, Deposit No. 21593)
- Sequence (P23219 24-599): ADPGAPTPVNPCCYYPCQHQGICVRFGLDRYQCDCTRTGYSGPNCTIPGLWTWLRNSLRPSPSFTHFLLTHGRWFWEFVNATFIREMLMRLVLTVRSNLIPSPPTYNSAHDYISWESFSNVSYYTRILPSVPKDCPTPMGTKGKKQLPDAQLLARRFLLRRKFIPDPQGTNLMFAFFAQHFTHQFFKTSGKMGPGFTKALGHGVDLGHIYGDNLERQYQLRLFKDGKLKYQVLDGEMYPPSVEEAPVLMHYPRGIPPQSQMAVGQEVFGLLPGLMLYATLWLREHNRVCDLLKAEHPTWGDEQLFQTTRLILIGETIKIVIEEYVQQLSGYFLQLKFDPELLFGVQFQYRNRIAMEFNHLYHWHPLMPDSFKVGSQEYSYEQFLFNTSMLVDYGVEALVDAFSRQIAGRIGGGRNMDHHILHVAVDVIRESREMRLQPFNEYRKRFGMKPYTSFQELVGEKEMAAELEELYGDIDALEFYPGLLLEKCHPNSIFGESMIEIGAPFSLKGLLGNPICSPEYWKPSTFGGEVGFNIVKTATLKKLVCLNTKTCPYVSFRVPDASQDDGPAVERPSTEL
- assay_protocol: Inhibitive effects against cyclooxygenase-1 using U-937 (PGE2 quantitation)
- Type: cell-based
- test_settings: U-937 cells, arachidonic acid substrate
observation_type: Inhibitory effects of cyclooxygenase (COX): COX-1 (10 μM) (% inhibition)
Express it in % inhibition; write the number only.

Previously resolved entries follow.
-- ask Could you tell me which Inhibitory effects of cyclooxygenase (COX): COX-1 (10 μM) is on file for COc1ccc(-c2nsc(C)c2-c2ccc(S(C)(=O)=O)cc2)cc1 ?
-- reply 80.1

-- ask Entry to check: Cc1snc(-c2ccc(S(C)(=O)=O)cc2)c1-c1ccc(F)cc1
-- reply 29.8

-- ask Entry to check: Cc1snc(-c2ccc(Br)cc2)c1-c1ccc(S(C)(=O)=O)cc1
-- reply 45.7

-- ask Entry to check: Cc1snc(-c2ccccc2)c1-c1ccc(S(C)(=O)=O)cc1
-- reply 56.4

Continuing:
-- ask Could you tell me which Inhibitory effects of cyclooxygenase (COX): COX-1 (10 μM) is on file for Cc1snc(-c2ccc(F)cc2)c1-c1ccc(S(C)(=O)=O)cc1 ?
-- reply 67.2

-- ask Entry to check: Cc1snc(-c2ccccc2)c1-c1ccc(S(N)(=O)=O)cc1
-- reply 35.5

-- ask Entry to check: Cc1snc(-c2ccc(F)cc2)c1-c1ccc(S(N)(=O)=O)cc1
-- reply 77.8

-- ask Entry to check: COc1ccc(-c2nsc(C)c2-c2ccc(S(N)(=O)=O)cc2)cc1
-- reply 79.5

-- ask Entry to check: Cc1snc(-c2ccc(Br)cc2)c1-c1ccc(S(N)(=O)=O)cc1
-- reply 38.8
